target.under.test: human Fc (human)
assay.explanation: ELISA, negative control
quantity.name: optical density (OD)
Your answer is read as OD, so omit the unit and give the number.

The cases that follow already have their optical density on record.
{"binder": "374_D06 (antibody, V domains shown) VH: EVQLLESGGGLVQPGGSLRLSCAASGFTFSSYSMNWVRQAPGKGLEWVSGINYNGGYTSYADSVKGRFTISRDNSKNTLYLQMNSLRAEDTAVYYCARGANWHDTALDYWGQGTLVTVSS VL: DIQMTQSPSSLSASVGDRVTITCRASQSILSYVNWYQQKPGKAPKLVIYAATSRASGVPSRFSGSGSGTDFTLTISSLQPEDFATYYCQQSYDSPLTFGGGTKVEIK", "quantity.name": "optical density", "unit.spec": "OD", "measured.result": 0.172}
{"binder": "369_D09 (antibody, V domains shown) VH: EVQLLESGGGLVQPGGSLRLSCAASGFTFSDYGMNWVRQAPGKGLEWVSNINYNGGYTSYADSVKGRFTISRDNSKNTLYLQMNSLRAEDTAVYYCARGANWHDTALDYWGQGTLVTVSS VL: DIQMTQSPSSLSASVGDRVTITCRASQSILTYLNWYQQKPGKAPKLLIYAATSRASGVPSRFSGSGSGTDFTLTISSLQPEDFATYYCQQSYDSPLTFGGGTKVEIK", "quantity.name": "optical density", "unit.spec": "OD", "measured.result": 0.287}
{"binder": "367_F08 (antibody, V domains shown) VH: EVQLLESGGGLVQPGGSLRLSCAASGFTFSSYGMHWVRQAPGKGLEWVSSINYNSGYTSYADSVKGRFTISRDNSKNTLYLQMNSLRAEDTAVYYCARAATWHDTHLDYWGQGTLVTVSS VL: DIQMTQSPSSLSASVGDRVTITCRASQSILSYVNWYQQKPGKAPKLVIYAATSRASGVPSRFSGSGSGTDFTLTISSLQPEDFATYYCQQSNELPLTFGGGTKVEIK", "quantity.name": "optical density", "unit.spec": "OD", "measured.result": 0.299}
{"binder": "370_E12 (antibody, V domains shown) VH: EVQLLESGGGLVQPGGSLRLSCAASGFTFDSYGMHWVRQAPGKGLEWVAGINYNGGYTSYADSVKGRFTISRDNSKNTLYLQMNSLRAEDTAVYYCARAATWHDTHLDYWGQGTLVTVSS VL: DIQMTQSPSSLSASVGDRVTITCRASQSILSYVNWYQQKPGKAPKLLIYAATSRASGVPSRFSGSGSGTDFTLTISSLQPEDFATYYCQQSYENPLTFGGGTKVEIK", "quantity.name": "optical density", "unit.spec": "OD", "measured.result": 0.656}

Query: Fill in the blank: the reported optical density of 366_D03 (antibody, V domains shown) VH: EVQLLESGGGLVQPGGSLRLSCAASGFTFDSYGMHWVRQAPGKGLEWVSSINYNGGYTGYADSVKGRFTISRDNSKNTLYLQMNSLRAEDTAVYYCARAANWHDTHLDYWGQGTLVTVSS VL: DIQMTQSPSSLSASVGDRVTITCRASQSILSYVNWYQQKPGKAPKLLIYAATSRASGVPSRFSGSGSGTDFTLTISSLQPEDFATYYCQQSYDLPLTFGGGTKVEIK is ____.
Result: 0.318
